molecular target: Lysophosphatidic acid receptor 6 (Homo sapiens); test: Intrinsic activity at human LPA6 receptor transfected in HEK293 cells after 1 hr by TGFalpha shedding assay in presence of Ki16425 relative to LPA; type: cell-based
# note: exactly 10 is not below, so it is false; use true for Intrinsic activity strictly under it

Request: Please state whether Intrinsic activity is below 10 for CCCCCCCCCCCCCCCCCCOC[C@H](COP(O)(O)=S)OC
Response: false

Request: # TODO verify Intrinsic activity < 10 strictly for this compound: CCCCCCCCCCCCCCCCCOC(COC)COP(O)(O)=S (racemic)
Response: false

Request: Please check: Intrinsic activity for CCCCCCCCCCCCCCCCCC(=O)OCC(COP(=O)(O)S)OC (racemic) , strictly under 10 or not?
Response: false

Request: Please indicate whether the reported Intrinsic activity of CCCCCCCC/C=C\CCCCCCCC(=O)OC[C@@H](O)COP(=O)(O)O [LYSOPHOSPHATIDIC ACID] is strictly below 10.
Response: true

Request: Dear reviewer, please state whether CCCCCCCCCCCCCCCCCC(=O)OC(COC)COP(O)(O)=S (racemic) has Intrinsic activity strictly beneath 10.
Response: false

Request: Intrinsic activity under 10? Item: CCCCCCCCCCCCCCCC(=O)OC[C@@H](O)COP(=O)(O)O
Response: true

Request: API: query returns whether the compound falls strictly under 10 in Intrinsic activity. Query: CCCCCCCCCCCCCCCCCC(=O)OC[C@@H](COP(O)(O)=S)OC
Response: false

Request: Please determine if CCCCCCCCCCCCCCCCOC(COC)COP(O)(O)=S (stereo unspecified) is below 10 in terms of Intrinsic activity.
Response: false

Request: Identify whether the compound CCCCCCCCCCCCCCCCCCOCC(COP(O)(O)=S)OC (racemic) records Intrinsic activity below 10.
Response: false

Request: Given the entry CCCCCCCCCCCCCCCCCCOC[C@@H](COP(O)(O)=S)OC , would its reported Intrinsic activity be below 10?
Response: false

Request: Determine whether this compound shows Intrinsic activity lower than 10 (ties excluded): CCCCCCCCCCCCCCCCCC(=O)OC[C@H](COP(O)(O)=S)OC
Response: false

###

target: UniProt Q9H1C0; assay: Intrinsic activity at human LPA5 receptor transfected in HEK293 cells after 1 hr by TGFalpha shedding assay in presence of Ki16425 relative to LPA; type: cell-based
Sequence (Q9H1C0 whole entry): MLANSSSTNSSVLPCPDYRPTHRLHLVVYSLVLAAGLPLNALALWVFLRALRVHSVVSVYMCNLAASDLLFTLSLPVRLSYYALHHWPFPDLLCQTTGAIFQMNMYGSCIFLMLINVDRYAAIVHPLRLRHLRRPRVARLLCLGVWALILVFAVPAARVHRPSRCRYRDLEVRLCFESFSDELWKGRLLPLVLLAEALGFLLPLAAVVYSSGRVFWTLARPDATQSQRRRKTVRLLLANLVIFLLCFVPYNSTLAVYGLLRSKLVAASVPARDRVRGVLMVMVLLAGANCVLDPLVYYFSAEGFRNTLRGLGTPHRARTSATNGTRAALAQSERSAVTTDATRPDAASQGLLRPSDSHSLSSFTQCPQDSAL
Each record is given fulfilled if its reported Intrinsic activity is strictly below 20. Records at or above 20 are given not fulfilled.

Request: I'd appreciate it if you could check whether CCCCCCCCCCCCCCCCCOC(COC)COP(O)(O)=S (racemic) has Intrinsic activity smaller than 20.
Response: not fulfilled

Request: API: query returns whether the compound falls strictly under 20 in Intrinsic activity. Query: CCCCCCCCCCCCCCCCCCOC[C@H](COP(O)(O)=S)OC
Response: fulfilled

Request: Input CCCCCCCCCCCCCCCCCC(=O)OC[C@@H](COP(O)(O)=S)OC ; condition: Intrinsic activity strictly below 20. Does it hold?
Response: fulfilled

Request: Lab log: compare recorded Intrinsic activity with 20; is it strictly lower for CCCCCCCC/C=C\CCCCCCCC(=O)OC[C@@H](O)COP(=O)(O)O [LYSOPHOSPHATIDIC ACID] ?
Response: fulfilled

Request: Quick check: Intrinsic activity of CCCCCCCCCCCCCCCCCCOC[C@@H](COP(O)(O)=S)OC under 20?
Response: not fulfilled
